I'd appreciate it if you could supply IC50 values for the items below.
Molecular target: AhR (Homo sapiens)
Sequence (P35869 11-848): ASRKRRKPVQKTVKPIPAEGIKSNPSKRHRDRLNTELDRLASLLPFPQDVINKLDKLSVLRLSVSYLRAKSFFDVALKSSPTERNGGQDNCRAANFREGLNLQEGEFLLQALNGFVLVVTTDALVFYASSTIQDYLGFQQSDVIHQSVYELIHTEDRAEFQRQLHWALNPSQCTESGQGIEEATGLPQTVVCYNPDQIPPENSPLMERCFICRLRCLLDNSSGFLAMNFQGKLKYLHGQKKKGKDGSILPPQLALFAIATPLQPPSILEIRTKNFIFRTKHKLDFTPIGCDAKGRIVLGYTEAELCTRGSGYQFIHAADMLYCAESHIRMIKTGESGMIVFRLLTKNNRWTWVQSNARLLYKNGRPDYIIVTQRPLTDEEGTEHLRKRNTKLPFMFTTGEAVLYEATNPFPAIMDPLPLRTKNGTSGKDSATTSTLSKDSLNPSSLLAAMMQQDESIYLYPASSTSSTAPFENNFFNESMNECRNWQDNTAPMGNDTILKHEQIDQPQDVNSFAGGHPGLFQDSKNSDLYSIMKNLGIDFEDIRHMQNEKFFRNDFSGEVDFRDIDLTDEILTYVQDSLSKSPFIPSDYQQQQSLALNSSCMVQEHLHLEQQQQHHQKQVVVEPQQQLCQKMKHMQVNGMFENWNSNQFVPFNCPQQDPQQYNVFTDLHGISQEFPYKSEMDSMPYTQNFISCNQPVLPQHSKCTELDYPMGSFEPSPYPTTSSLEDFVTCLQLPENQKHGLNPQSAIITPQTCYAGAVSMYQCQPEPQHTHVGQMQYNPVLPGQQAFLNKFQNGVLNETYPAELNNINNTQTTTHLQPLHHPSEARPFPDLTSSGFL
Assay: In Vitro Assay 1: XRE-luciferase reporter assay, antagonism in human cell line (HepG2)
Settings: Assay 1: AhR-Luc Human Antagonism (IC50, nM), unmarked values: kynurenine 200 μM, 6 hours

Reported IC50, compound OC[C@H]1CCN(c2cc(-c3ccc(C(F)(F)F)cc3)nc(-c3cccnc3)n2)C[C@@H]1O [Example 260] : ____ < 10 nM

Would you kindly repeat that for OCC1CCN(c2cc(-c3ccc(F)nc3)nc(-c3cccnc3)n2)CC1 [Example 318] ? 10 to 100 nM

Would you kindly repeat that for CS(=O)(=O)Nc1ccc(-c2cc(N3CCC(CO)CC3)nc(-c3cccnc3)n2)cc1 [Example 274] ? > 1000 nM

Would you kindly repeat that for COc1ccc(-c2cc(N3CCC(CO)CC3)nc(-c3cccnc3)n2)cc1 [Example 228] ? 10 to 100 nM

----------
I'd appreciate it if you could supply IC50 values for the items below.
Target: AhR (Mus musculus, UniProt P30561)
Sequence (P30561 1-848): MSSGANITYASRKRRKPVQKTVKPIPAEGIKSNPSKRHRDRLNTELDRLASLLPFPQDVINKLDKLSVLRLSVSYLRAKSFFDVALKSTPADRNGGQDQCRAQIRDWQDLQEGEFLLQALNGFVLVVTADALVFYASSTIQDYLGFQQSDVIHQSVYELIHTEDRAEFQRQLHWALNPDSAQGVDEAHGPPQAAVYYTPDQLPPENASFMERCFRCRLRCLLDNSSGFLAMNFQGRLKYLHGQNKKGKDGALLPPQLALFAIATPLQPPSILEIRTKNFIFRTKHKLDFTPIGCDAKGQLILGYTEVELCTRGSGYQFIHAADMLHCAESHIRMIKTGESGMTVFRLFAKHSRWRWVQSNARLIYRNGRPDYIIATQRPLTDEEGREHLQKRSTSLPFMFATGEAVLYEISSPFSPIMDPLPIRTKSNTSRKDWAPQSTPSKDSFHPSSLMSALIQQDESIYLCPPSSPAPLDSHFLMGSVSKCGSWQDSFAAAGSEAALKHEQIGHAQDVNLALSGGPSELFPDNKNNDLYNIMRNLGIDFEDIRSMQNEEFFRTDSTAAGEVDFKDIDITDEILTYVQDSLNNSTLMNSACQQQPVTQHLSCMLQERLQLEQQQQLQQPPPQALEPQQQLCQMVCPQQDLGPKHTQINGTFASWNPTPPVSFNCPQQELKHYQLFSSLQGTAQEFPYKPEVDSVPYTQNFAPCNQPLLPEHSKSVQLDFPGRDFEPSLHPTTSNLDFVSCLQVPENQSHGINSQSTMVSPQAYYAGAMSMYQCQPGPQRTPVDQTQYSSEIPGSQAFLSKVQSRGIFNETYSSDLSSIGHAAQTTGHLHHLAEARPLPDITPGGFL
Test: In Vitro Assay 2: XRE-luciferase reporter assay, antagonism in mouse cell line (Hepa1c1c7)
Assay type: cell-based
Settings: values marked #: AhR activating ligand kynurenine, 6 hours, read-out: Assay 2: AhR-Luc Mouse Antagonism (IC50)

Reported IC50, compound `CC(=O)N1CCC(CNc2cc(-c3ccc(Cl)cc3)nc(-c3cccnc3)n2)CC1` : ____ 10 to 100 nM

Would you kindly repeat that for `CC[C@H](CO)Nc1cc(-c2ccc(Cl)cc2)nc(-c2cccnc2)n1` ? 100 to 1000 nM

Would you kindly repeat that for `OCC1CCN(c2cc(-c3ccc(N4CCOCC4)cc3)nc(-c3cccnc3)n2)CC1` ? < 10 nM

Would you kindly repeat that for `CN1CCN(C2CCN(c3cc(-c4ccc(Cl)cc4)nc(-c4cccnc4)n3)CC2)CC1` ? 100 to 1000 nM

Would you kindly repeat that for `O[C@@H]1CN(c2cc(-c3ccc(Cl)cc3)nc(-c3cccnc3)n2)C[C@@H]1F` ? 10 to 100 nM

Would you kindly repeat that for OCC1CN(c2cc(-c3ccc(Cl)cc3)nc(-c3cccnc3)n2)CC1O (centres unmarked) ? 100 to 1000 nM

Would you kindly repeat that for `O[C@H]1CC[C@@H](Nc2cc(-c3ccc(Cl)cc3)nc(-c3cccnc3)n2)C1` ? 100 to 1000 nM

Would you kindly repeat that for `CS(=O)(=O)N1CCN(c2cc(-c3ccc(Cl)cc3)nc(-c3cccnc3)n2)CC1` ? 10 to 100 nM
